# Protocol Notes: Phase 2: chemical distribution from skim milk into curd and whey
# Assay type: physicochemical, cow
# Experimental Setup: dry matter basis; mean of doses
I would appreciate it if you labelled entries YES when concentration ratio of 0% moisture curd to whey is 50 or higher, otherwise NO.

>>> group_label("O=C(Nc1ccc(Cl)cc1)Nc1ccc(Cl)c(Cl)c1")
"NO"
>>> group_label("CC(C)(c1ccc(O)cc1)c1ccc(O)cc1")
"YES"
>>> group_label("Clc1ccc(-c2cc(Cl)c(Cl)cc2Cl)cc1Cl")
"YES"
>>> group_label("O=C(O)CNCP(=O)(O)O [GLY, glyphosate]")
"NO"
>>> group_label("Clc1cc2c(cc1Cl)Oc1c(ccc(Cl)c1Cl)O2")
"YES"
>>> group_label("Brc1ccc(Oc2cc(Br)c(Br)cc2Br)c(Br)c1")
"YES"
>>> group_label("O=[N+]([O-])NC1=NCCN1Cc1ccc(Cl)nc1")
"NO"
>>> group_label("C[C@]12CC[C@@H]3c4ccc(O)cc4CC[C@H]3[C@@H]1CCC2=O [E1, estrone]")
"YES"
>>> group_label("Oc1c(Cl)cc2c(c1Cl)Oc1cc(Cl)c(Cl)cc1O2")
"NO"

====

Recorded measurements of curd/whey concentration ratio, one per entry
# Protocol Notes: Phase 2: chemical distribution from skim milk into curd and whey
# Assay type: physicochemical, cow
# Experimental Setup: curd as obtained (70% moisture); mean of doses
Property: curd/whey concentration ratio

>>> reading("C[C@]12CC[C@@H]3c4ccc(O)cc4CC[C@H]3[C@@H]1CCC2=O [E1, estrone]")
24
>>> reading("CC(C)(c1ccc(O)cc1)c1ccc(O)cc1 [BPA, bisphenol A]")
29
>>> reading("O=[N+]([O-])NC1=NCCN1Cc1ccc(Cl)nc1 [IMI, imidacloprid]")
2.4
>>> reading("O=C(O)CNCP(=O)(O)O [GLY, glyphosate]")
1.4

====

# Protocol Notes: Phase 1: chemical distribution from whole milk into milk fat and skim milk
# Assay type: physicochemical, cow
# Experimental Setup: mean of all doses
Recorded measurements of distribution into milk fat, percent of total amount added, one per entry
Property: distribution into milk fat, percent of total amount added

>>> reading("Clc1ccc(-c2cc(Cl)c(Cl)cc2Cl)cc1Cl")
"> 80%"
>>> reading("C[C@]12CC[C@@H]3c4ccc(O)cc4CC[C@H]3[C@@H]1CCC2=O [E1, estrone]")
"74%"
>>> reading("Oc1c(Cl)cc2c(c1Cl)Oc1cc(Cl)c(Cl)cc1O2")
"54%"
>>> reading("O=[N+]([O-])NC1=NCCN1Cc1ccc(Cl)nc1")
"2.5%"
>>> reading("CC(C)(c1ccc(O)cc1)c1ccc(O)cc1")
"39%"
>>> reading("Clc1cc2c(cc1Cl)Oc1c(ccc(Cl)c1Cl)O2")
"> 80%"
>>> reading("Brc1ccc(Oc2cc(Br)c(Br)cc2Br)c(Br)c1")
"> 80%"
>>> reading("O=C(O)CNCP(=O)(O)O [GLY, glyphosate]")
"0.95%"

====

# Protocol Notes: Phase 2: chemical distribution from skim milk into curd and whey
# Assay type: physicochemical, cow
# Experimental Setup: mean of doses
Property: chemical retained in the curd fraction, percent of chemical in skim milk

>>> reading("O=C(Nc1ccc(Cl)cc1)Nc1ccc(Cl)c(Cl)c1 [TCC, triclocarban]")
"40–60%"
>>> reading("Clc1ccc(-c2cc(Cl)c(Cl)cc2Cl)cc1Cl [PCB-118, 2,3′,4,4′,5-pentachlorobiphenyl]")
"~80%"
>>> reading("O=[N+]([O-])NC1=NCCN1Cc1ccc(Cl)nc1 [IMI, imidacloprid]")
"23.7%"
>>> reading("Clc1cc2c(cc1Cl)Oc1c(ccc(Cl)c1Cl)O2 [1278-TCDD, 1,2,7,8-tetrachlorodibenzo-p-dioxin]")
"~80%"
>>> reading("Brc1ccc(Oc2cc(Br)c(Br)cc2Br)c(Br)c1 [BDE-99, 2,2′,4,4′,5-pentabromodiphenyl ether]")
"~80%"
>>> reading("Oc1c(Cl)cc2c(c1Cl)Oc1cc(Cl)c(Cl)cc1O2 [2-OH-1378-TCDD]")
"40–60%"
